Test system: smooth muscle (longitudinal muscle of ileum)
Assay: Enhancement of Calcium Ion Evoked Smooth Muscle Contractility (isolated ileum longitudinal muscle)
Conditions: lowest concentration that produced enhancement of calcium evoked contraction; guinea pig ileum, 6 min drug exposure, 37° C; read-out: Threshold for Enhancement
Assign minimal effective concentration to each entry below.
Numbers only, in nM.

Known minimal effective concentration results, listed for orientation:
>  <compound>
CC1=C(C(=O)OC2CN3CCC2CC3)C(c2cccc([N+](=O)[O-])c2)C([N+](=O)[O-])=C(C)N1 (single isomer, unassigned) [(-a, -b)]

>  <endpoint.result>
10

$$$$
>  <compound>
CC1=C(C(=O)OC2CN3CCC2CC3)C(c2cccc([N+](=O)[O-])c2)C([N+](=O)[O-])=C(C)N1 (single isomer, unassigned) [(+a, -b)]

>  <endpoint.result>
10

$$$$
>  <compound>
CC1=C(C(=O)OC2CN3CCC2CC3)C(c2cccc([N+](=O)[O-])c2)C([N+](=O)[O-])=C(C)N1 (single isomer, unassigned) [(+a, +b)]

>  <endpoint.result>
10

$$$$

get_value(item= CC1=C(C(=O)OC2CN3CCC2CC3)C(c2cccc([N+](=O)[O-])c2)C([N+](=O)[O-])=C(C)N1 (single isomer, unassigned) [(-a, +b)] , readout=minimal effective concentration) returns 100
